# subject of test: LRRK2 (G2019S) (Homo sapiens, UniProt Q5S007, G2019S)
# Construct: Recombinant GST-LRRK2 (delta970), purified from baculovirus infected insect cells (SF9); GST (N)
# Sequence (Q5S007 970-2527 G2019S limits assumed): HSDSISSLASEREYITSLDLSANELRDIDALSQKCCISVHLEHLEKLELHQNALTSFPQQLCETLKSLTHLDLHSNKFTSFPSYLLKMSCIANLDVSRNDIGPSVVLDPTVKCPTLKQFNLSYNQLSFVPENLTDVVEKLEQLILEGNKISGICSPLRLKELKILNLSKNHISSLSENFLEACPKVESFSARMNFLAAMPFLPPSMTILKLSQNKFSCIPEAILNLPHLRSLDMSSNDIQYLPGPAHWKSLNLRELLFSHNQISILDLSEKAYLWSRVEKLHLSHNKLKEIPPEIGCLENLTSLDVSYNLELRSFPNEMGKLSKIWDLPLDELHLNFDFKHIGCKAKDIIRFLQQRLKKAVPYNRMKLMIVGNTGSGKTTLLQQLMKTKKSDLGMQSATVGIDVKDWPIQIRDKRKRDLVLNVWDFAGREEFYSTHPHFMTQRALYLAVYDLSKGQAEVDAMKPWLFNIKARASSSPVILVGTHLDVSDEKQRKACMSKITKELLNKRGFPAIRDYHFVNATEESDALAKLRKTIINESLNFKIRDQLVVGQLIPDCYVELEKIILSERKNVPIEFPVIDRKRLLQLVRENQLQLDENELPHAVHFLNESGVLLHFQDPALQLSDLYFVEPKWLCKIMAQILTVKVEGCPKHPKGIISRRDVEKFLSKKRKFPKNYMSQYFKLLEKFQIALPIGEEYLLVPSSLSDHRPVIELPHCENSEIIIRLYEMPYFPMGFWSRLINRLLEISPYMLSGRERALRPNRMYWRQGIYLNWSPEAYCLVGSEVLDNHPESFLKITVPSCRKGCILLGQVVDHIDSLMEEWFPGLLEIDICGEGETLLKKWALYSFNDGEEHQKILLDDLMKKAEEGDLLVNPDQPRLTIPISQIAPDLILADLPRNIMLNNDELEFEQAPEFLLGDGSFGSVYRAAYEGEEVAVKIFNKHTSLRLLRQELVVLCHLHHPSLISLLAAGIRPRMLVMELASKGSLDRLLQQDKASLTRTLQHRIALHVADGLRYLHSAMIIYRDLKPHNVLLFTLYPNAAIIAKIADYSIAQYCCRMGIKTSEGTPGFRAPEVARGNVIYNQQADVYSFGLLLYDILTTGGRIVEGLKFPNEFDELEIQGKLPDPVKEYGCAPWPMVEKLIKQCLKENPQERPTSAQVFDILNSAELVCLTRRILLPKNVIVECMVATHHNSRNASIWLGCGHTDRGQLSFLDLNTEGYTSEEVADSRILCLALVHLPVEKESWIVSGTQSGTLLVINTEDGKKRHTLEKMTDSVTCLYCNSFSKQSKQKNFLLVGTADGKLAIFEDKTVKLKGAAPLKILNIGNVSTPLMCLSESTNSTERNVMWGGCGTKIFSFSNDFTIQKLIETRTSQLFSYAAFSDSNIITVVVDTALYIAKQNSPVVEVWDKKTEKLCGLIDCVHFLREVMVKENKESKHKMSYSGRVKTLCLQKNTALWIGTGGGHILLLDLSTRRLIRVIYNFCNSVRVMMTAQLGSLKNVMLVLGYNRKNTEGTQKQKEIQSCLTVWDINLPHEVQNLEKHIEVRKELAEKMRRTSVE
# method notes: LRRK2 inhibition, radiometric kinase assay with recombinant GST-LRRK2 (delta970) and peptide substrate
# cond: GST-LRRK2 (delta970) G2019S 30 nM, ATP ~52 μM (Km), 30 min at 30° C.
Entries and their IC50

Guide cases for IC50, answers given:
1) CC(Sc1ccc2nnc(-c3nccs3)n2n1)C(=O)N1CCCCC1 (stereo not shown) [Example 125] :: 0.1 to 1 µM
2) CCC(Sc1ccc2nnc(-c3cccs3)n2n1)C(=O)N1CCCCC1 (stereo not shown) [Example 34] :: < 0.1 µM
3) O=C(O)CSc1ccc2nnc(-c3cc4ccccc4o3)n2n1 [Example 31] :: ≥ 5 µM
4) CCC(Sc1ccc2nnc(-c3ccc(F)c(F)c3)n2n1)C(N)=O (stereo not shown) [Example 79] :: 1 to 5 µM
5) CCC(Sc1ccc2nnc(-c3ccc(F)cc3)n2n1)C(=O)Nc1cnc2ccccc2c1 (stereo not shown) [Example 12] :: ≥ 5 µM
6) CCC(Sc1ccc2nnc(-c3ccccc3F)n2n1)C(N)=O (stereo not shown) [Example 80] :: 0.1 to 1 µM

# return recorded IC50 for input CCOC(=O)C(CC)Sc1ccc2nnc(-c3ccc(F)c(F)c3)n2n1 (stereo not shown) [Example 76]
1 to 5 µM

# return recorded IC50 for input CCC(Oc1ccc2nnc(-c3cccs3)n2n1)C(N)=O (stereo not shown) [Example 84]
≥ 5 µM

# return recorded IC50 for input CCC(Oc1ccc2nnc(-c3cccs3)n2n1)C(=O)O (stereo not shown) [Example 83]
≥ 5 µM

# return recorded IC50 for input CCC(Nc1ccc2nnc(-c3cccs3)n2n1)C(=O)OC (stereo not shown) [Example 98]
≥ 5 µM

# return recorded IC50 for input NC(=O)CSc1ccc2nnc(-c3cc4ccccc4s3)n2n1 [Example 29]
≥ 5 µM

# return recorded IC50 for input CCC(Sc1ccc2nnc(-c3ccc(C(F)(F)F)cc3)n2n1)C(N)=O (stereo not shown) [Example 78]
≥ 5 µM

# return recorded IC50 for input CCC(Sc1ccc2nnc(-c3cccs3)n2n1)C(=O)N1CCCC1 (stereo not shown) [Example 46]
< 0.1 µM
